assay: logP determination by HPLC on a reversed-phase column (C18), EEC Directive 79/831 Annex V.A8; assay type: physicochemical; settings: HPLC on reversed-phase column (C18)
measurement.name: log P

{"columns": ["compound.structure", "measurement.name", "result"],
 "data": [
  ["N#CC1(NC(=O)c2cc(-c3cnn(-c4c(Cl)cc(C(O)(C(F)(F)F)C(F)(F)F)cc4Cl)c3)cnc2Cl)CC1", "log P", 3.0],
  ["CCSc1cc(C(F)(C(F)(F)F)C(F)(F)F)cc(C)c1-n1cc(-c2ccc(Cl)c(C(=O)NC3(C#N)CC3)c2)cn1", "log P", 4.5],
  ["O=C(NC1CC1)c1cc(-c2cnn(-c3c(Cl)cc(C(F)(C(F)(F)F)C(F)(F)F)cc3C(F)F)c2)ccc1Cl", "log P", 4.4],
  ["N#Cc1cc(C(F)(C(F)(F)F)C(F)(F)F)cc(Cl)c1-n1cc(-c2cnc(Cl)c(C(=O)NC3(C#N)CC3)c2)cn1", "log P", 3.5]
]}

###

// reported efficacy per item
test system: Rhipicephalus sanguineus; assay: Rhipicephalus sanguineus - in vitro contact tests with adult brown dog ticks; assay type: in vivo; details: application rate 5 μg/cm^2, after 48 h (dead or moribund)
measurement.name: efficacy (%)

{"columns": ["compound.structure", "units.text", "readout.number"],
 "data": [
  ["O=C(NC1CC1)c1cc(-c2cnn(-c3c(Cl)cc(C(F)(C(F)(F)F)C(F)(F)F)cc3OC(F)(F)F)c2)ccc1Cl", "%", 100],
  ["O=C(NC1CC1)c1cc(-c2cnn(-c3c(Cl)cc(OC(F)(F)F)cc3Cl)c2)ccc1Cl", "%", 80],
  ["Cc1cc(C(F)(C(F)(F)F)C(F)(F)F)cc(C)c1-n1cc(-c2cnc(C)c(C(=O)NC3(C#N)CC3)c2)cn1", "%", 100],
  ["CCc1cc(C(F)(C(F)(F)F)C(F)(F)F)ccc1-n1cc(-c2ccc(Cl)c(C(=O)NC3(C#N)CC3)c2)cn1", "%", 80],
  ["Cc1cc(C(F)(C(F)(F)F)C(F)(F)F)cc(C(F)(F)F)c1-n1cc(-c2ccc(Cl)c(C(=O)NC3(C#N)CC3)c2)cn1", "%", 100],
  ["CCc1cc(C(F)(F)C(F)(F)F)cc(C)c1-n1cc(-c2ccc(Cl)c(C(=O)NC3(C#N)CC3)c2)cn1", "%", 80],
  ["N#CC1(NC(=O)c2cc(-c3cnn(-c4c(Br)cc(C(F)(C(F)(F)F)C(F)(F)F)cc4C(F)(F)F)c3)cnc2Cl)CC1", "%", 100]
]}

###

experiment: logP determination by HPLC on a reversed-phase column (C18), EEC Directive 79/831 Annex V.A8; assay type: physicochemical; conditions: HPLC on reversed-phase column (C18)

{"columns": ["compound", "log P"],
 "data": [
  ["CC[S+]([O-])c1cc(C(F)(C(F)(F)F)C(F)(F)F)cc(C)c1-n1cc(-c2ccc(Cl)c(C(=O)NC3(C#N)CC3)c2)cn1 (stereo not drawn)", 3.6],
  ["O=C(NC1CC1)c1cc(-c2cnn(-c3c(I)cc(C(F)(C(F)(F)F)C(F)(F)F)cc3C(F)(F)F)c2)ccc1Cl", 4.5],
  ["CN(C(=O)c1cc(-c2cnn(-c3c(Cl)cc(C(F)(C(F)(F)F)C(F)(F)F)cc3OC(F)F)c2)ccc1Cl)C1CC1", 4.7]
]}
